Catalogue of ELISA score values
- TARGET_OF_ASSAY: T1, human neonatal Fc receptor (hFcRn) (human, UniProt P55899 24-290; P61769 21-119)
- T1 construct: Biotinylated in the ELISA, Octet and yeast assays; also called human FcRn; huFcRn
- ASSAY_REMARKS: phage ELISA pH 6;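 further: higher score means stronger binding and above about 3 to 5 exceeds background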
- Description: Approximately 100 μL of biotinylated human FcRn at 2 μg/mL was added to the wells of MAXISORP™ plates coated with 10 μg/mL streptavidin. […] A horseradish peroxidase (HRP)-conjugated anti-M13 antibody was used to detect the binding phage, and the plates were scored by a microtiter plate reader using a wavelength in the visible range. Binding was assessed by a quantitative enzyme-linked immunoadsorbent assay (ELISA). […]
Number, no unit, nothing else.

BINDER | READOUT_NAME | VALUE_MEASURED
L5 isolate with insertion SEQ ID NO: 489 (other) EPKSCDKTHTCPPCPAPELLGGPSVFLFPPKPKDTLMISRTPEVTCVVVDVSHEDPEVKFNWYVDGVEVHNAKTKPREEQYNSTYRVVSVLTVLHQDWLNGKEYKCKVSNKALPAPIEKTISKAKGQPREPQVYTLPPSRDELTKNQVSLTCLVKGFYPSDIAVEWESNGGCQPQASWCGGGQPENNYKTTPPVLDSDGSFFLYSKLTVDKSRWQQGNVFSCSVMHEALHNHYTQKSLSLSPGK | ELISA score | 25.2

Turning to the following binder.
query: Suppose we examine the binder L5 isolate with insertion SEQ ID NO: 461 (other) EPKSCDKTHTCPPCPAPELLGGPSVFLFPPKPKDTLMISRTPEVTCVVVDVSHEDPEVKFNWYVDGVEVHNAKTKPREEQYNSTYRVVSVLTVLHQDWLNGKEYKCKVSNKALPAPIEKTISKAKGQPREPQVYTLPPSRDELTKNQVSLTCLVKGFYPSDIAVEWESNGGCKWSMTKCGGGQPENNYKTTPPVLDSDGSFFLYSKLTVDKSRWQQGNVFSCSVMHEALHNHYTQKSLSLSPGK ; what ELISA score value has been reported?
result: 47.2
